MEASURE_NAME: melting point (°C)
Give bare numbers, in °C.

Quick request: melting point for each listed item, please.
1. Nc1ccc2ccc3cccc4ccc1c2c34
2. C/C(=C\C(=O)O)c1ccc(C)cc1

[118, 135]

----------
Hi! Could you tag entries with melting point below 90 °C as Fulfilled, and those at or above as Not fulfilled? Much appreciated.

N#Cc1ccc2c(c1)OCO2 [Piperonylonitrile]	Not fulfilled
C=C(C)C(C)C [2,3-dimethyl-1-butene]	Fulfilled
O=C1CCSCC1 [tetrahydro-4h-thiopyran-4-one]	Fulfilled

Is melting point of NC(=O)CS(=O)C(c1ccccc1)c1ccccc1 (stereo unspecified) [Modafinil] strictly below 90 °C?
Not fulfilled

Is melting point of C#CCCCCC [1-heptyne] strictly below 90 °C?
Fulfilled

Is melting point of c1ccc2c(c1)-c1ccccc1-2 [biphenylene] strictly below 90 °C?
Not fulfilled

Is melting point of CCCCCCCCCCCCCCCCCCN1c2ccccc2C(C)(C)C12C=Cc1cc([N+](=O)[O-])ccc1O2 (stereo unspecified) strictly below 90 °C?
Fulfilled

Is melting point of NC(=O)Cc1cccc2ccccc12 [1-naphthylacetamide] strictly below 90 °C?
Not fulfilled

Is melting point of O=C(O)COc1ccccc1 [phenoxyacetic_acid] strictly below 90 °C?
Not fulfilled

Is melting point of CC(C)Oc1ccc(Nc2ccccc2)cc1 [4-Isopropoxy-N-phenylaniline] strictly below 90 °C?
Fulfilled

Is melting point of CC(O)CN (racemic) [dl-1-amino-2-propanol] strictly below 90 °C?
Fulfilled

----------
Provide the recorded melting point for the entries that follow.

Before answering, review these 6 worked examples.
COc1cccc2c1C(=O)C2 [5-methoxybicyclo[4.2.0]octa-1,3,5-trien-7-one]	35 °C
CCc1ccccc1CC [1,2-diethylbenzene]	-31 °C
O=[N+]([O-])c1ccccc1I	50 °C
c1cc2cccc3c4cccc5cccc(c(c1)c23)c54	278 °C
C[SiH]1O[SiH](C)O[SiH](C)O[SiH](C)O1 (stereo not given)	-69 °C
COCC(C)O (stereo not given)	-97 °C

Quick request: melting point for each listed item, please.
1. ClCc1ccccc1 [benzyl_chloride]
2. COC(=O)c1ccc(C(C)=O)cc1 [methyl 4-acetylbenzoate]
3. CC(C)(C)c1ccccc1
4. C(=NC1CCCCC1)=NC1CCCCC1 [N,N'-dicyclohexylcarbodiimide]

1: -43 °C; 2: 86 °C; 3: -58 °C; 4: 35 °C

----------
Provide the recorded melting point for the entries that follow.
One number for each entry, in °C.

c1ccoc1 [furan]	-85
COc1ccc2cc(C(C)CO)ccc2c1 (stereo not drawn) [Naproxol]	87
Cc1ccc(C(C)C)cc1 [p-cymene]	-68
CC12CCC=C1C1CCC3CC(=O)CCC3(C)C1CC2 (stereo not drawn) [androst-14-en-3-one]	116
CC(=O)Oc1ccccc1C(=O)O [o-acetylsalicylic acid]	138

Quick request: melting point for each listed item, please.
1. O=[N+]([O-])c1cccc(S(=O)(=O)Cl)c1 [3-nitrobenzenesulfonyl chloride]
2. Nc1ccc(S(=O)(=O)Nc2ncccn2)cc1 [Sulfadiazine]
3. Cc1cc(C#N)cc(C#N)c1 [5-methylisophthalonitrile]
4. Nc1cccc2c(N)cccc12 [1,5-Naphthalenediamine]
5. CCN(CC)CCNC(=O)c1cc(Cl)c(N)cc1OC [metoclopramide]
6. CC(=O)OC1CCCC2=CC(=O)CCC21C (stereo not drawn)
7. O=C(O)c1cc(Cl)c(C(=O)O)cc1Cl [2,5-dichloroterephthalic acid]

1: 61; 2: 259; 3: 164; 4: 158; 5: 147; 6: 90; 7: 295

// query melting point value for entry C[C@]12C=CC(=O)C=C1CC[C@@H]1[C@@H]2[C@@H](O)C[C@@]2(C)[C@H]1CC[C@]2(O)C(=O)CO [Prednisolone]
240

----------
Provide the recorded melting point for the entries that follow.
Answers are plain numbers, in °C.

Before answering, review these 5 worked examples.
Nc1ccc(F)cc1[N+](=O)[O-] [4-fluoro-2-nitroaniline]	92
CS(=O)(=O)n1ccnc1 [1-(methylsulfonyl)imidazole]	89
CO[C@@]12[C@H](COC(N)=O)C3=C(C(=O)C(C)=C(N)C3=O)N1C[C@@H]1N[C@@H]12 [mitomycin c]	360
O=C1C=C(c2ccccc2)c2ccccc21 [3-phenyl-1H-inden-1-one]	51
COC1OC(=O)c2ccccc21 (configuration not stated) [3-methoxy-2-benzofuran-1(3H)-one]	44

Quick request: melting point for each listed item, please.
1. N#CC(c1ccccc1)N1CCOCC1 (stereo not drawn) [alpha-(4-morpholinyl)phenylacetonitrile]
2. CC12CCCCC1CCC1C2CCC2(C)C1CCC2(O)C#Cc1ccccc1 (configuration not stated) [21-phenylpregn-20-yn-17-ol]
3. CCOC(=O)C(C#N)=NO [ethyl isonitrosocyanoacetate]
4. Nc1ncc(Br)cc1[N+](=O)[O-] [2-amino-5-bromo-3-nitropyridine]
5. CCOC(=O)c1cc(C)n(-c2ccc(F)cc2)c1C [OSM-S-03]
6. COC(=O)c1cccc(Br)c1 [methyl_3-bromobenzoate]
7. Cc1c(C)c2c(c(C)c1O)CC[C@@](C)(CCC[C@H](C)CCC[C@H](C)CCCC(C)C)O2
8. Cc1cccc(N)c1C [2,3-dimethylaniline]

1. 69
2. 103
3. 130
4. 208
5. 64.5
6. 33
7. 2
8. 2

Quick request: melting point for each listed item, please.
1. N#CCc1ccccc1C(=O)O [o-cyanomethyl_benzoic_acid]
2. CCCC(=O)CCC [Heptan-4-one]

1: 115; 2: -33

Quick request: melting point for each listed item, please.
1. CC(C)(C)c1ccc(O)c(N)c1 [2-amino-4-tert-butylphenol]
2. CCCCCCCCCCCCCCCC(=O)O [Palmitic acid]
3. CN(C)[C@@H]1C(O)=C(C(N)=O)C(=O)[C@@]2(O)C(O)=C3C(=O)c4c(O)ccc(Cl)c4[C@@](C)(O)[C@H]3C[C@@H]12 [chlortetracycline]

1. 163
2. 62.5
3. 168

Quick request: melting point for each listed item, please.
1. CCCCCCCCCCS [1-decanethiol]
2. C=COC(C)=O [Vinyl acetate]
3. CCOc1ccc(N)cc1 [p-phenetidine]
4. O[C@@H]1CO[C@H]2[C@@H]1OC[C@@H]2O [D-isosorbide]

-26
-100
3
60

Quick request: melting point for each listed item, please.
1. O/N=C(\c1ccccc1)C(O)c1ccccc1 (configuration not stated) [(2E)-2-(Hydroxyimino)-1,2-diphenylethanol]
2. OB(O)c1cc2ccccc2nc1F [2-fluoroquinoline-3-boronic acid]
3. CCOC(=O)/C(C#N)=N\Nc1cccc([N+](=O)[O-])c1 [Ethyl (2Z)-cyano[(3-nitrophenyl)hydrazono]acetate]
4. O=C(O)[C@@H]1[C@@H]2CC[C@@H](C2)[C@@H]1C(=O)O [(1R,2R,3S,4S)-Bicyclo[2.2.1]heptane-2,3-dicarboxylic acid]
5. O=C[C@H](O)[C@@H](O)[C@@H](O)[C@H](O)CO [D-galactose]

1. 154
2. 92
3. 156
4. 160
5. 167

----------
Please mark satisfied if the recorded melting point is equal to or greater than 60 °C, and not satisfied if it falls below.

Below, 4 molecules whose answers are already recorded.
CN1[C@@H]2CC[C@H]1C[C@@H](O)C2	satisfied
CC1(C(=O)O)CCCCC1	not satisfied
NC(=O)c1ccncc1 [isonicotinamide]	satisfied
CC(C)=CCC/C(C)=C/CO	not satisfied

Please check the record CC12C=CC(O1)C1C(=O)OC(=O)C12 (stereo not drawn) and state if its melting point is at or above 60 °C.
satisfied

Please check the record CS(=O)(=O)O and state if its melting point is at or above 60 °C.
not satisfied

Please check the record C[C@@H](O)[C@H](N)C(=O)O and state if its melting point is at or above 60 °C.
satisfied

Please check the record CN(C)c1ccc(/C=C(/C#N)c2nc(-c3ccc(Cl)cc3)cs2)cc1 and state if its melting point is at or above 60 °C.
satisfied

Please check the record CC(C)CC(C)(C)C [2,2,4-Trimethylpentane] and state if its melting point is at or above 60 °C.
not satisfied

Please check the record CCCCOC(=O)c1ccc(N)cc1 [Butyl 4-aminobenzoate] and state if its melting point is at or above 60 °C.
not satisfied

----------
Provide the recorded melting point for the entries that follow.
Answers are plain numbers, in °C.

Before answering, review these 3 worked examples.
O=C1CCCCCN1	70
Oc1ccc(O)cc1 [hydroquinone]	175
Brc1cccc(I)c1	-9

In the following, a different compound is considered.
// query melting point value for entry Cc1cccc(C)c1[N+](=O)[O-]
15

----------
MEASURE_NAME: melting point

CC(=O)N/C=C/c1ccccc1[N+](=O)[O-] [N-[(E)-2-(2-nitrophenyl)ethenyl]acetamide]	150 °C
CN(C)c1ccc(/C=C/C=O)cc1 [(2E)-3-[4-(Dimethylamino)phenyl]acrylaldehyde]	135 °C

Quick request: melting point for each listed item, please.
1. BrC(=C(c1ccccc1)c1ccccc1)c1ccccc1
2. Nc1ccccc1C(=O)O

1: 114 °C; 2: 147 °C
